# Lookup of reported NanoBRET Abs IC50 keyed by entry
Target: T1, B-cat-Halo (UniProt P35222 1-781)
T1 sequence (looked up): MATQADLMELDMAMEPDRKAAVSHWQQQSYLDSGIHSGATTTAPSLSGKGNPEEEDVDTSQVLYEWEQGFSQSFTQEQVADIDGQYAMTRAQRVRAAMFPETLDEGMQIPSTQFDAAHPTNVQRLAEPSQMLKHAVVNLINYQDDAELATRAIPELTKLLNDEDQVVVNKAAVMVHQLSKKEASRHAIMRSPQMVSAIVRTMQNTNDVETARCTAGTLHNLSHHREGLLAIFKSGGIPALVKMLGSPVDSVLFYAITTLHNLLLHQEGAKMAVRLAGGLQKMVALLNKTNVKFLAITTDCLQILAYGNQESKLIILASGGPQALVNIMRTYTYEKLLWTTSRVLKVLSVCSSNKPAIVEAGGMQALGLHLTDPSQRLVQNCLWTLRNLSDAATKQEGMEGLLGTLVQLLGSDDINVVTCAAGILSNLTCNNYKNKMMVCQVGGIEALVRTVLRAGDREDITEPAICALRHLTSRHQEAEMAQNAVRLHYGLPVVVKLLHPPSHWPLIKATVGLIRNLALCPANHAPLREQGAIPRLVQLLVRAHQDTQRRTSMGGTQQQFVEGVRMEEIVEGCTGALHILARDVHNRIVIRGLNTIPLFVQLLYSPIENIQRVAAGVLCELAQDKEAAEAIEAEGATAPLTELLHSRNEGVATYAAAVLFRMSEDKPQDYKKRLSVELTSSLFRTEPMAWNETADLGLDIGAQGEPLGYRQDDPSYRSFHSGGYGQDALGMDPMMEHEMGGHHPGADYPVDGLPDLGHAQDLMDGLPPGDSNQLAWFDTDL
Assay: cell-based or functional assay
Starred links: 1 amine or outer side, 2 acyl side, 3 side chain; linkers in the order of their positions; H or OH if unused. Positions of bridges follow the written chain, without caps; N, C: chain ends. Non-standard residues stand in square brackets, D forms with d. Primed or numbered codes have the meaning given here. PyrS2″ = (S)-3-amino-1-((pent-4-en-1-yloxy)carbonyl)pyrrolidine-3-carboxylic acid (stapling residue), C=CCCCOC(=O)N1CC[C@@](N[*:1])(C(=O)[*:2])C1; B5(18) = 2,2-bis(4-pentenyl)glycine (2-amino-2-(pent-4-en-1-yl)hept-6-enoic acid), stitching residue, C=CCCCC(CCCC=C)(N[*:1])C(=O)[*:2]; TfeGA = (S)-2-amino-3-((carboxymethyl)(2,2,2-trifluoroethyl)amino)propanoic acid, O=C([C@H](CN(CC(=O)[*:3])CC(F)(F)F)N[*:1])[*:2]; Phe(2-Cl) = N[C@@H](Cc1ccccc1Cl)C(=O)O; Bta = N[C@@H](Cc1csc2ccccc12)C(=O)O; αAllylPro = C=CC[C@@]1(C(=O)O)CCCN1; tBuAla = CC(C)(C)C[C@H](N)C(=O)O; TfeGA″ = not defined here

BINDER: Ac-[αAllylPro]D[tBuAla][B5(18)]D[TfeGA]FAFN[PyrS2″][Phe(2-Cl)][Bta]Q-NH2 (staple 1-4, 4-11) [I-1008]
LIMIT QUALIFIER: =
NanoBRET Abs IC50, µM: 14

BINDER: Ac-[αAllylPro]D[tBuAla][B5(18)]D[TfeGA″]SAFN[PyrS2″][Phe(2-Cl)][Bta]Q-NH2 (staple 1-4, 4-11; reading uncertain) [I-1009]
LIMIT QUALIFIER: =
NanoBRET Abs IC50, µM: 33.3

BINDER: Ac-[αAllylPro]D[tBuAla][B5(18)]D[TfeGA]AKFN[PyrS2″][Phe(2-Cl)][Bta]Q-NH2 (staple 1-4, 4-11) [I-1006]
LIMIT QUALIFIER: >
NanoBRET Abs IC50, µM: 20

BINDER: Ac-[αAllylPro]D[tBuAla][B5(18)]D[TfeGA]LAFN[PyrS2″][Phe(2-Cl)][Bta]Q-NH2 (staple 1-4, 4-11) [I-1007]
LIMIT QUALIFIER: =
NanoBRET Abs IC50, µM: 24.9
